experiment: probe aNOTCH3 binding on compound microarray – biochemical, small-molecule microarray, 635/667 nm fluorescence, primary screen (AID 1120); conditions: higher = more signal;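 also: probe is a biotin-tagged antibody raised against NOTCH3 rather than NOTCH3 protein; score merges spot fluorescence near 667 nm with spot signal to noise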
The following compounds are shown together with reported composite z-score values.
Response field accepts a number only; no unit should be typed.

# count of solved cases: 3
# compound, measured_endpoint, value
measured = [
    ("Cn1cccc1C(O)C1C=CC2C(=O)N(c3ccccc3)C(=O)C2N1Nc1ccccc1 (configuration not stated)", "composite z-score", 0.346),
    ("CCOc1cc(C(O)C2C=CC3C(=O)NC(=O)C3N2Nc2ccc(Cl)cc2Cl)ccc1O (configuration not stated)", "composite z-score", -0.152),
    ("CC(C)[Si]1(C(C)C)OCc2cc(-c3ccc(-c4ccc(Cl)c(Cl)c4)o3)nc(-c3ccccc3)c21", "composite z-score", -0.235),
]

Proceed to the following item.
Value of measured composite z-score for the entry COCCOC(=O)N1C(=O)[C@@]2(c3ccccc31)[C@H](c1ccc(O)cc1)N1[C@H](c3ccccc3)[C@H](c3ccccc3)OC(=O)[C@H]1[C@@H]2C(=O)N1CCN(c2ncccn2)CC1 : -0.0014

Hey, just so you know, these numbers are from PubChem BioAssay.
